Target: C-X-C chemokine receptor type 2 (Homo sapiens)
Sequence (P25025 whole entry): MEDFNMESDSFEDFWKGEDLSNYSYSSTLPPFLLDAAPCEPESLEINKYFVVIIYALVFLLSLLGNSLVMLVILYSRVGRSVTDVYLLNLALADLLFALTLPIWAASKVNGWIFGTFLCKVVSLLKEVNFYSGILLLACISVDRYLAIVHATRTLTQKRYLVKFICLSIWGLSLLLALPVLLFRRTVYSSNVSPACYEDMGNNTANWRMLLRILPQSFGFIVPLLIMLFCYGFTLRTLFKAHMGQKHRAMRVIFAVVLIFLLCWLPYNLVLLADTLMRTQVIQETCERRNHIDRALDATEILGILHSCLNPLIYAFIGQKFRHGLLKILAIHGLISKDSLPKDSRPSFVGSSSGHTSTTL
Assay: Antagonist activity at human CXCR2 assessed as inhibition of GROalpha-induced calcium flux
Listed below: IC50 values for each entry.

COMPOUND	IC50
CC1CCN(C(=O)C(CCn2cccc2C#N)NS(=O)(=O)c2cc(Cl)c(N)c(Cl)c2)CC1 (configuration not stated)	> 10 µM

Let's switch to this compound now.
Record request: IC50 value, item CC1CCN(C(=O)C(CCn2cccc2C#N)NS(=O)(=O)c2cccc3[nH]ccc23)CC1 (racemic)
> 10 µM

###

Assay: Clearance in mouse liver microsomes relative to hepatic blood flow
Type: ADME
Conditions: read-out: CLH
MEASUREMENT_LABEL: hepatic extraction ratio

What does the record list as hepatic extraction ratio for CC1CCN(C(=O)C(CCn2cccc2C#N)NS(=O)(=O)c2cccc3[nH]ccc23)CC1 (racemic) ?
> 0.88
